# System: A549/ATCC
# procedure text: NCI one-dose SRB anti-proliferative screen
# Format: cell-based
# test context: Homo sapiens; A549/ATCC (Non-Small Cell Lung Cancer), NCI one dose 10 µM; read-out: Cell growth inhibition %
property label: inhibition at 10 µM (%)
Write the number in % without appending the unit.

Kindly indicate its recorded inhibition at 10 µM. Item: O=C(CSc1nnc(-c2ccc3[nH]c(-c4ccc(Cl)cc4)nc3c2)o1)Nc1ccc(C(=O)/C=C/c2ccc(Cl)cc2)cc1
4.52

Kindly indicate its recorded inhibition at 10 µM. Item: COc1ccc(/C=C/C(=O)c2ccc(NC(=O)CSc3nnc(-c4ccc5[nH]c(-c6ccc(OC)c(OC)c6)nc5c4)o3)cc2)cc1
0

Kindly indicate its recorded inhibition at 10 µM. Item: COc1ccc(-c2nc3cc(-c4nnc(SCC(=O)Nc5ccc(C(=O)/C=C/c6ccccc6)cc5)o4)ccc3[nH]2)cc1OC
0

Kindly indicate its recorded inhibition at 10 µM. Item: COc1ccc(-c2nc3cc(-c4nnc(SCC(=O)Nc5ccc(C(=O)/C=C/c6ccc(Cl)cc6)cc5)o4)ccc3[nH]2)cc1OC
0

Kindly indicate its recorded inhibition at 10 µM. Item: COc1ccc(/C=C/C(=O)c2ccc(NC(=O)CSc3nnc(-c4ccc5[nH]c(-c6ccc(Cl)cc6)nc5c4)o3)cc2)cc1
0

Kindly indicate its recorded inhibition at 10 µM. Item: COc1cc(-c2nc3cc(-c4nnc(SCC(=O)Nc5ccc(C(=O)/C=C/c6ccc(Cl)cc6)cc5)o4)ccc3[nH]2)cc(OC)c1OC
0

Kindly indicate its recorded inhibition at 10 µM. Item: COc1cc(-c2nc3cc(-c4nnc(SCC(=O)Nc5ccc(C(=O)/C=C/c6ccccc6)cc5)o4)ccc3[nH]2)cc(OC)c1OC
0.78

Kindly indicate its recorded inhibition at 10 µM. Item: O=C(CSc1nnc(-c2ccc3[nH]c(-c4ccc(Cl)cc4)nc3c2)o1)Nc1ccc(C(=O)/C=C/c2ccccc2)cc1
0

====

melting point listing for selected compounds.

Example entries begin here.
compound structure string	property label	observed value
COc1cc(/C=C/C(=O)c2ccc(NC(=O)CSc3nnc(-c4ccc5[nH]c(-c6ccc(Cl)cc6)nc5c4)o3)cc2)cc(OC)c1OC	melting point	223 to 225 °C
COc1ccc(/C=C/C(=O)c2ccc(NC(=O)CSc3nnc(-c4ccc5[nH]c(-c6ccc(Cl)cc6)nc5c4)o3)cc2)cc1	melting point	228 to 230 °C

Kindly indicate its recorded melting point. Item: COc1ccc(-c2nc3cc(-c4nnc(SCC(=O)Nc5ccc(C(=O)/C=C/c6ccccc6)cc5)o4)ccc3[nH]2)cc1OC
185 to 186 °C

Kindly indicate its recorded melting point. Item: COc1ccc(/C=C/C(=O)c2ccc(NC(=O)CSc3nnc(-c4ccc5[nH]c(-c6ccc(OC)c(OC)c6)nc5c4)o3)cc2)cc1OC
190 to 193 °C

Kindly indicate its recorded melting point. Item: COc1ccc(-c2nc3cc(-c4nnc(SCC(=O)Nc5ccc(C(=O)/C=C/c6cc(OC)c(OC)c(OC)c6)cc5)o4)ccc3[nH]2)cc1OC
190 to 193 °C

Kindly indicate its recorded melting point. Item: O=C(CSc1nnc(-c2ccc3[nH]c(-c4ccc(Cl)cc4)nc3c2)o1)Nc1ccc(C(=O)/C=C/c2ccc(Cl)cc2)cc1
215 to 217 °C

====

melting point listing for selected molecules.

compound structure string	melting point
COc1ccc(/C=C/C(=O)c2ccc(NC(=O)CSc3nnc(-c4ccc5[nH]c(-c6ccccc6)nc5c4)o3)cc2)cc1	175 to 177 °C

Kindly indicate its recorded melting point. Item: COc1ccc(-c2nc3cc(-c4nnc(SCC(=O)Nc5ccc(C(=O)/C=C/c6ccc(Cl)cc6)cc5)o4)ccc3[nH]2)cc1OC
194 to 195 °C

Kindly indicate its recorded melting point. Item: COc1ccc(/C=C/C(=O)c2ccc(NC(=O)CSc3nnc(-c4ccc5[nH]c(-c6ccccc6)nc5c4)o3)cc2)cc1OC
156 to 158 °C

Kindly indicate its recorded melting point. Item: O=C(CSc1nnc(-c2ccc3[nH]c(-c4ccc(Cl)cc4)nc3c2)o1)Nc1ccc(C(=O)/C=C/c2ccccc2)cc1
161 to 163 °C
